# testedOn: CYP2C19 (Homo sapiens, UniProt P33261)
# Construct: 158 ul of human liver microsome (HLM) was added to all the wells; from tissue; host or cells: human liver microsomes
# Sequence (P33261 whole entry): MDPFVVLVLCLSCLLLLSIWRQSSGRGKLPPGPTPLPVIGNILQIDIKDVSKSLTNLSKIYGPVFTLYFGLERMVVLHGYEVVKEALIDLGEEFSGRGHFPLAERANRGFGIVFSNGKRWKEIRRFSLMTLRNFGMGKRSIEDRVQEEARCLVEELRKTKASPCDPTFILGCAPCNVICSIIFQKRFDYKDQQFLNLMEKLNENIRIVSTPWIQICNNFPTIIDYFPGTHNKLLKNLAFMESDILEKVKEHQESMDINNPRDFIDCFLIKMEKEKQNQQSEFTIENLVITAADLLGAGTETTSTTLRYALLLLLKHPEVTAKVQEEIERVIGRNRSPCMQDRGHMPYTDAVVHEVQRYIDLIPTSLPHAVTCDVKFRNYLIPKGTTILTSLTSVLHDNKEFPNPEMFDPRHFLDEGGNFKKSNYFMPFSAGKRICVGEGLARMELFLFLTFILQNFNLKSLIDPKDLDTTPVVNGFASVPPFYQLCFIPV
# measurementDescription: CYP Inhibition
# Type: in vitro ADME
# conditionDescription: human liver microsomes, probe 5 in 1 substrate cocktail (substrates not named), human liver microsome, read-out: P450 2C19 % Inhibition

compound: C[C@@H]1[C@H](O)[C@@H](C)/C=C/C=C/C=C/C=C/C=C/C=C/C=C/[C@H](OC2O[C@H](C)[C@@H](O)[C@H](N)[C@@H]2O)C[C@@H]2O[C@](O)(C[C@@H](O)C[C@@H](O)[C@H](O)CC[C@@H](O)C[C@@H](O)CC(=O)O[C@H]1C)C[C@H](O)[C@H]2C(=O)O (stereo partly shown) [AmB, Amphotericin B]
readingUnit: %
inhibition at 10 min, 10 µM: 7.3

Source of measurements: patent US20230016424A1
